Quick record of IC50 values for TNAP (Homo sapiens (Human)).

Known results for molecules:
// IC50 lookup, key: COc1ccc(Br)cc1S(=O)(=O)Nc1cc[nH]n1
> 1000 nM

Next molecule: CNC(=O)c1cncc(NS(=O)(=O)c2cc(Cl)ccc2OC(F)(F)F)c1
100 to 1000 nM

Another molecule: COc1ccc(Br)cc1S(=O)(=O)Nc1cc(C(F)(F)F)n(C)n1
> 1000 nM

Next molecule up: O=C(Oc1ccccc1)c1cncc(NS(=O)(=O)c2cc(Cl)ccc2OC(F)(F)F)c1
< 100 nM

Consider next the molecule COc1cccc(-c2cncc(NS(=O)(=O)c3cc(OC)ccc3OC)c2)c1 in the same way.
< 100 nM

Continuing:
Fill in the blank: the reported IC50 of COc1ccc(OC)c(S(=O)(=O)N(c2cnc3ccccc3c2)C(C)C)c1 is ____.
> 1000 nM

Now try COc1ccc(OC(F)(F)F)cc1S(=O)(=O)Nc1cncc(C(=O)Oc2ccccc2)c1 .
< 100 nM

Same read-out for COc1ccc(C(=O)NCCN(C)C)cc1S(=O)(=O)Nc1cnc2ccccc2c1 ?
100 to 1000 nM

Next molecule up: COc1c(Cl)cccc1S(=O)(=O)Nc1cccnc1
> 1000 nM

Entry to check: COCCNC(=O)c1cncc(NS(=O)(=O)c2cc(OC)ccc2OC)c1
100 to 1000 nM

Do the same for COc1ccc(Br)cc1S(=O)(=O)Nc1cncc(-c2ccc(C)cc2)c1 please
100 to 1000 nM

Now try COc1ccc(OC)c(S(=O)(=O)Nc2cncc(C(=O)NC3CCCCC3)c2)c1 .
< 100 nM

Queued: C#CCN(c1cnc2ccccc2c1)S(=O)(=O)c1cc(Br)ccc1OC
> 1000 nM

Note, next up: COc1ccc(C(N)=O)cc1S(=O)(=O)Nc1cnc2ccccc2c1
100 to 1000 nM

Next molecule up: COc1ccc(-c2ccoc2)cc1S(=O)(=O)Nc1cccnc1
100 to 1000 nM

Subsequent entry: COc1ccc(OC)c(S(=O)(=O)Nc2cnc3ccc(C(=O)NC4CCCCC4)cc3c2)c1 [Example IX-16]
< 100 nM

Another molecule: COc1ccc(-c2cncc(NS(=O)(=O)c3cc(Br)ccc3OC)c2)cc1
100 to 1000 nM

Try this molecule next: COc1ccc(Br)cc1S(=O)(=O)Nc1ncco1
> 1000 nM
